measuredTarget: T1, human IL-6 (Homo sapiens, UniProt P05231)
T1 construct: host or cells: IL-6 added from outside to murine 7TD1 hybridoma cells
T1 sequence (P05231 30-212): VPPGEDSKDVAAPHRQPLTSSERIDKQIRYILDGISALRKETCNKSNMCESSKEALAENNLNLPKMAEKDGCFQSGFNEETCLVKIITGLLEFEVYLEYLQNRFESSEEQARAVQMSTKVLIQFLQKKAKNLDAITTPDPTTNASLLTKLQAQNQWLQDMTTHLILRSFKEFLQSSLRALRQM
methodSummary: IL-6 neutralizing bioassay, 7TD1 cell proliferation
Type: cell-based
conditionDetails: Exp 29.06 (7TD1); relative to 68F2
measurementKind: Rel. Potency
Answer with a number only.

I have this molecule here, 127E2 (17.06) (antibody, V domains shown) VH: EVQLQESGPGLVKPSQTLSLTCTVSGGSITTRYYAWSWIRQPPGKGLEWIGVIDYDGDTYYSPSLKSRVTISVDTSKNQFSLQLSSVTAEDTAVYYCARDPDVVTGFHYDYWGQGTQVTVSS VL: QSALTQPPSVSGSPGQTVTISCAGANNDIGTYAYVSWYQQPPGTAPKLLIYKVTTRASGVPDRFSGSKSGNTASLTISGLQAEDEADYYCASYRNFNNAVFGGGTHLTVL , and I need its recorded Rel. Potency. 0.37
